Numbers sourced from PubChem BioAssay AID1159580.

# Protocol text: chemical genetic growth profiling, strain panel (AID 1159580);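 further: tested at 20 µM; growth read once vehicle control cultures reached saturation at 30 °C; 1 = growth at the plate median or of vehicle wells; lower values mean less growth of the strain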
# Experimental conditions: S. cerevisiae deletion strains, growth OD, locus YNL298W, strain CLA4, active compounds read low
About 2,000 (36%) of roughly 5,500 compounds were called active. Roughly 18% stayed inconclusive and do not appear here. Some of the results follow.

>  <Molecule>
CC(=O)OC1CC[C@@]2(C)C(CC[C@]3(C)C2CCC2C4CC(C)(C)CCC4(C(=O)O)CC[C@]23C)C1(C)C (some centres undefined)

>  <normalized growth>
0.992

$$$$
>  <Molecule>
CCC(C)C(=O)O[C@H]1[C@H](O)C2C(CN3CC(C)CCC3[C@@]2(C)O)C2C[C@]34O[C@]5(O)C(OC(=O)C(C)(O)CC)CC[C@@]3(C)C5C(OC(C)=O)[C@@H](OC(C)=O)C4[C@@]21O (some centres undefined)

>  <normalized growth>
0.991

$$$$
>  <Molecule>
CC(=O)NCc1c(I)c(NC(C)=O)c(I)c(C(=O)O)c1I

>  <normalized growth>
0.995

$$$$
>  <Molecule>
Nc1ccc(S(=O)(=O)Nc2cnc3ccccc3n2)cc1

>  <normalized growth>
0.988

$$$$
>  <Molecule>
CC(=O)O[C@@H]1CC[C@@]2(C)C(CC[C@]3(C)C2CC=C2C4CC(C)(C)CC[C@]4(C(=O)O)CC[C@]23C)C1(C)C (some centres undefined)

>  <normalized growth>
0.995

$$$$
>  <Molecule>
N#CC(O[C@@H]1O[C@H](CO[C@@H]2O[C@H](CO)[C@@H](O)[C@H](O)[C@H]2O)[C@@H](O)[C@H](O)[C@H]1O)c1ccccc1 (some centres undefined)

>  <normalized growth>
0.996

$$$$
>  <Molecule>
COc1cccc(OC)c1OCCNCC1COc2ccccc2O1 (centres undefined)

>  <normalized growth>
0.977

$$$$
>  <Molecule>
Nc1ccccc1C(=O)CC(N)C(=O)O (centres undefined)

>  <normalized growth>
0.991

$$$$
>  <Molecule>
NC(N)=N/N=C/c1c(Cl)cccc1Cl

>  <normalized growth>
1.05

$$$$
